- target entity: Ras-related C3 botulinum toxin substrate 1 (Homo sapiens) (UniProt P63000)
- measurement description: wildtype Rac1 GTP binding inhibitors, dose response, biochemical, multiplex bead flow cytometry (AID 1340)
- assay conditions: GST-Rac1 beads, Bodipy-FL-GTP binding
measured metric: EC50

Incoming: For Ras-related C3 botulinum toxin substrate 1 (Homo sapiens) (UniProt P63000), give EC50 of the listed compound: COc1ccc(C(=O)/C=C/Nc2ccc(S(=O)(=O)Nc3nc(C)cc(C)n3)cc2)cc1OC
Outgoing: 3.12 µM

Incoming: For Ras-related C3 botulinum toxin substrate 1 (Homo sapiens) (UniProt P63000), give EC50 of the listed compound: NC(=S)N=Nc1c(O)[nH]c2ccc(F)cc12
Outgoing: 3.46 µM

Incoming: For Ras-related C3 botulinum toxin substrate 1 (Homo sapiens) (UniProt P63000), give EC50 of the listed compound: COc1cc(/C=N/Nc2nnc3c(n2)[nH]c2ccccc23)ccc1O
Outgoing: 0.634 µM
